Numbers sourced from paper PMC5540273.

- System: GSK3A;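 further: KINOMEscan kinase panel screen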
- Condition Details: concentration: 1 μM, replicates: in singlicate; n = 1
I'd be grateful if you could share measured %Inh for these entries.
Report the figure in % without appending any unit label.

GET /values?readout=%Inh&item= Cn1ccc2ncnc(Oc3ccc(NC(=O)Nc4cccnc4)c(Cl)c3)c21
0

Next up: CS(=O)(=O)CCNCc1nc(-c2ccc3ncnc(Nc4ccc(OCc5cccc(F)c5)c(Cl)c4)c3c2)cs1.Cl
0

Same thing, different compound: Fc1cccc(COc2ccc(Nc3ncnc4sc(-c5ccc[nH]5)cc34)cc2Cl)c1
22

Now the compound N#Cc1ccc(Oc2ccc(Nc3ncnc4cc[nH]c34)cc2Cl)cc1
19

Same again, this time with O=C(c1ccc(-c2cc(-c3c[nH]nc3-c3ccccn3)ccn2)cc1)N1CCCC1
14

Also check CN1c2ccc(-c3ccc(C(=O)NCCO)cc3)cc2-c2[nH]ncc2S1(=O)=O
8

And Fc1ccc(-c2ncn(CCCNCc3ccccc3)c2-c2ccncc2)cc1 ?
8

Queued: Nc1nc(-c2ccccn2)c(-c2ccnc3ccccc23)s1
8
